Experiment: Toxicity on replicate uninfected macrophage plates (MTS cell viability)
Assay type: cell-based, human
Conditions: human, TABLE 8 (6a carrier and ddc prodrug); uninfected macrophages, MTS; read-out: TC50 (50% cytotoxicity)
Measure: CC50 at 7 days

// lookup CC50 at 7 days for "CCN(c1ccc(/C(=C/C=C/C(=C2C=CC(=[N+](CC)c3ccc4c(=O)[nH][nH]c(=O)c4c3)C=C2)c2ccc(N(C)C)cc2)c2ccc(N(C)C)cc2)cc1)c1ccc2c(=O)[nH][nH]c(=O)c2c1"
> 100 µM

---

Below, each of the compounds is paired with its reported IC50 value.
Test system: Ba-L strain of HIV-1
Assay: Anti-HIV-1 potency in macrophage assay (p24 ELISA)
Type: cell-based, HIV-1 in human monocyte/macrophages
Settings: Human immunodeficiency virus 1, BAL, Macrophage, TABLE 10; Southern Research Institute under NIH contract; HIV-1 in human macrophages; read-out: IC50
I only need the number, in µM, no unit after it.

Observe how each entry below is paired with its result.
{"Compound": "CCN(c1ccc(/C(=C/C=C/C=C2C=CC(=[N+](C)C)C=C2)c2ccc(N(C)C)cc2)cc1)c1ccc2c(=O)[nH][nH]c(=O)c2c1", "IC50 [µM]": 18.9}
{"Compound": "Nc1ccn([C@H]2CC[C@@H](CO)O2)c(=O)n1 [ddc, dideoxycytidine, reference compound]", "IC50 [µM]": 0.04}
{"Compound": "CCN(c1ccc(/C(=C/C=C/C(=C2C=CC(=[N+](CC)c3ccc4c(=O)[nH][nH]c(=O)c4c3)C=C2)c2ccc(N(C)C)cc2)c2ccc(N(C)C)cc2)cc1)c1ccc2c(=O)[nH][nH]c(=O)c2c1", "IC50 [µM]": 2.62}

Okay, now this compound:
Hello, I am looking for reported IC50 with Ba-L strain of HIV-1 for "CCN(c1ccc(/C(=C/C=C/C(=C2C=CC(=[N+](CC)c3ccc4c(=O)[nH][nH]c(=O)c4c3)C=C2)c2ccccc2)c2ccccc2)cc1)c1ccc2c(=O)[nH][nH]c(=O)c2c1" . Could you help?
23.1

Source: patent US20050080260A1
